study.system: SARS-CoV-2 RBD-hFc (SARS-CoV-2, UniProt P0DTC2 319-541)
method: cell-based or functional assay
So I've got a bunch of binders here, and I need their IC50, 세포내 유입(internalization) 억제, HEK293E/ACE2-GFP values.
Express the result in nM but write the number alone.

Noted for SA4043 (antibody, V domains shown) VH: QVQLQESGGGLVQPGGSLRLSCAASVITVSSNYMSWVRQAPGKGLEWVSVIYPGGSTYYADSVKGRFTISRDKSKNTLYLQMNSLRAEDTAVYYCARDLDIVGGMDVWGQGTTVTVSS VL: DIQMTQSPSTLSASVGDRVTITCRASQSISRWLAWYQQKPGQAPKLLIYAASTLQSGVPSRFSGSGSGTEFTLTISSLQPDDFATYYCQQYDSYPRTFGQGTKVDIK : its IC50, 세포내 유입(internalization) 억제, HEK293E/ACE2-GFP reads 12.8

Form field IC50, 세포내 유입(internalization) 억제, HEK293E/ACE2-GFP, entry SA3779 (antibody, V domains shown) VH: QVQLVESGGGVVQPGRSLRLSCAASGFTFSSYAMHWVRQAPGKGLEWVAVISYDGSNKYYADSAKGRFTISRDNSKNTLYLQMNSLRAEDTAVYYCARRGHYYDSSGYLYWGHGTLITVSS VL: DIQMTQSPSSLSASVGDRVTITCRASQRIATYLHWYQQKPGRAPKLLIYAASSLQTGVPSRFSGSGSGTDFTLTINSLQPEDFATYYCQQSYAIPYTFGQGTKLEIK : 18.9

Reported IC50, 세포내 유입(internalization) 억제, HEK293E/ACE2-GFP ( SA4044 (antibody, V domains shown) VH: EVQLVQSGGGLIQPGGSLRLSCAASGFTVSSNYMSWVRQAPGKGLEWVSVIYSGGSTYYADSVKGRFTISRDNSKNTLHLQMNSLRAEDTAVYYCARDLPQFDGFDYWGQGTLVTVSS VL: QSALTQPPSLSVAPGRTARITCGGNNIGSKSVNWYQHMPGQAPVLVIYSDTDRPSGIPERVSGSKSGNTATLSISRVEAGDEADYYCQVWDSTTDHVVFGGGTKLTVL ) = 39.2

The binder identified as SA3830 (antibody, V domains shown) VH: QVQLVESGGGLIQPGRSLSLSCAASGFNFDEYSMHWVRQRPGKGLEWVSGIKYNSNTILYADSVKGRFTVSRDNSKNSLYLQMNSLRAEDTAVYYCARDAMRGGDFDHWGQGTLITVSS VL: DIQMTQSPSYLSASAGDRVTITCRASQSISDWLAWYQHKPGKAPKLLIYKASRLENGVPSRFRGSGSATDFTLTISSLQAEDVAVYYCQQYYSTTWTFGQGTKVDIK registered its IC50, 세포내 유입(internalization) 억제, HEK293E/ACE2-GFP at 13.5

Quick note, IC50, 세포내 유입(internalization) 억제, HEK293E/ACE2-GFP for SA4057 (antibody, V domains shown) VH: EVQLVQSGGGLVQPGGSLRLSCAASVITVSSNYMSWVRQAPGKGLEWVSVIYPGGSTYYADSVKGRFTISRDKSKNTLYLQMNSLRAEDTAVYYCARDLDIVGGMDVWGQGTTVTVSS VL: QLVLTQPPSVSGAPGQRVTISCTGSSSNIGAPHDVHWYQQLPGTAPRLLIYANNNRPSGVPDRFSGSKSGTSASLAITGLQDEDEADYYCQSYDSSLRAYVFGTGTKVTVL landed at 28.1
